Value source: patent US7875599B2

experimental target: human 5α-reductase type 2 (Homo sapiens)
Sequence (P31213 whole entry): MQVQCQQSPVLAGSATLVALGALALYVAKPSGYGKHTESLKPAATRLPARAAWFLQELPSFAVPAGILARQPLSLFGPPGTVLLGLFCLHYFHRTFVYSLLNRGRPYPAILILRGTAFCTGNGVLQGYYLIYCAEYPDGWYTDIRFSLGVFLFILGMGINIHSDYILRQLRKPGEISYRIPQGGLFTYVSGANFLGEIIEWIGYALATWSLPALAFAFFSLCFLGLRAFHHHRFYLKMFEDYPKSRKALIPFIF
assay protocol: Human 5α-reductase type 2 assay (BPH tissue homogenate)
run parameters: read-out: 5α-Reductase type 2 [IC50]; BPH tissue enzyme; values in square brackets
measurement label: pIC50
One number for each entry, as −log10 of the molar value.

What measured pIC50 goes with CC(C)(C)NC(=O)[C@H]1CC[C@H]2[C@@H]3CC[C@H]4NC(=O)C=C[C@]4(C)[C@H]3CC[C@]12C [Finasteride, reference compound] ?
8.70

====

assay protocol: Pharmacokinetics after single s.c. dose in male SCID mice
Type: in vivo, mouse
run parameters: mouse, plasma, sc; 50 mg/kg s.c., male SCID mice; read-out: MRT (converted)
measurement label: MRT (h)
One number for each entry, in h.

Quick one: MRT of `C[C@]12CCC(=O)C=C1CC[C@@H]1[C@@H]2CC[C@]2(C)C(n3cnc4ccccc43)=CC[C@@H]12` ?
1.33

====

assay protocol: Pharmacokinetics after single s.c. dose in male SCID mice
Assay type: in vivo, mouse
run parameters: mouse, plasma, sc; 50 mg/kg s.c., male SCID mice; read-out: AUC (converted)
From the text: […] HPLC Analysis: Chromatographic separations and quantification of the steroids and the appropriate internal standards are achieved by a reverse phase HPLC method on a Waters® Novapak® C18 column (3.9×150 mm) protected by Waters® guard cartridge packed with pellicle C18 as previously described. […]
measurement label: AUC (ng·h/mL)
One number for each entry, in ng·h/mL.

AUC for `C[C@]12CCC(=O)C=C1CC[C@@H]1[C@@H]2CC[C@]2(C)C(n3cnc4ccccc43)=CC[C@@H]12` ?
10800

====

measurement label: melting point

The following compounds have reported results that may help.
Return reported melting point; argument: C[C@]12CC[C@H](O)CC1=CCC1C2CC[C@]2(C)C(n3nnc4ccccc43)=CCC12 (stereo partly shown)
241 to 244 °C

Record request: melting point value, item C[C@]12CCC(=O)C=C1CCC1C2CC[C@]2(C)C(n3nnc4ccccc43)=CCC12 (stereo partly shown)
280 to 283 °C

melting point for `C[C@]12CCC(=O)C=C1CC[C@@H]1[C@@H]2CC[C@]2(C)C(n3cnc4ccccc43)=CC[C@@H]12` ?
201 to 204 °C

Next up:
Record request: melting point value, item `C[C@]12CC[C@H](O)CC1=CC[C@@H]1[C@@H]2CC[C@]2(C)C(c3cncnc3)=CC[C@@H]12`
231 to 233 °C

====

Consider the following compounds; for each one, report its IC50.
experimental target: UniProt P05093
Sequence (P05093 1-508): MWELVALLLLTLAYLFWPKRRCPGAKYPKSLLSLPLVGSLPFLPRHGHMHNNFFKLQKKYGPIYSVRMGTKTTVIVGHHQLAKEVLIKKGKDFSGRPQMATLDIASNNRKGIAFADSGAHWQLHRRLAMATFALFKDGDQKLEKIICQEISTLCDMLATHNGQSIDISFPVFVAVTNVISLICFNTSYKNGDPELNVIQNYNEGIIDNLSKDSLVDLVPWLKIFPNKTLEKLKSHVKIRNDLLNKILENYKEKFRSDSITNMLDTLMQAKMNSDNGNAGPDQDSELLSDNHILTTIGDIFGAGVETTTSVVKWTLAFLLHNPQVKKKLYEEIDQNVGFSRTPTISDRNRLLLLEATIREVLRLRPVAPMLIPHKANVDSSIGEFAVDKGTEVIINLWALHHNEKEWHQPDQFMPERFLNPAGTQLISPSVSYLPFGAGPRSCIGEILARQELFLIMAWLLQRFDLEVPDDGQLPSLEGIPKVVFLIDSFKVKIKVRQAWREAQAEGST
assay protocol: CYP17 inhibition, acetic acid releasing assay with intact P450c17-expressing E. coli
run parameters: read-out: CYP17 IC50; intact P450c17-expressing E. coli; substrate [21-3H]-17α-hydroxypregnenolone
Numbers only, in µM.

Request: IC50, test system UniProt P05093, entry C[C@]12CCC(=O)C=C1CCC1C2CC[C@]2(C)C(n3nnc4ccccc43)=CCC12 (stereo partly shown)
5.82

What reported IC50 corresponds to `C[C@]12CC[C@H](O)CC1=CC[C@@H]1[C@@H]2CC[C@]2(C)C(n3ccnc3)=CC[C@@H]12` on UniProt P05093?
0.05

Lab request: please report IC50 under test system UniProt P05093 for C[C@]12CC[C@H](O)CC1=CCC1C2CC[C@]2(C)C(c3cnccn3)=CCC12 (stereo partly shown)
3.81

Now consider the entry below.
Give UniProt P05093 IC50 for C[C@]12CC[C@H](O)CC1=CCC1C2CC[C@]2(C)C(n3nnc4ccccc43)=CCC12 (stereo partly shown)
1.25
